meta.source: patent US20260116990A1

# test target: T1, His-tagged ectodomain of mouse transferrin receptor 1 (mTfR1, S122-F763) (mouse, UniProt Q62351 122-763)
# T1 construct: also called mouse TfR1
# T1 sequence (Q62351 other isoform, or with tags, fused parts or gaps limits assumed): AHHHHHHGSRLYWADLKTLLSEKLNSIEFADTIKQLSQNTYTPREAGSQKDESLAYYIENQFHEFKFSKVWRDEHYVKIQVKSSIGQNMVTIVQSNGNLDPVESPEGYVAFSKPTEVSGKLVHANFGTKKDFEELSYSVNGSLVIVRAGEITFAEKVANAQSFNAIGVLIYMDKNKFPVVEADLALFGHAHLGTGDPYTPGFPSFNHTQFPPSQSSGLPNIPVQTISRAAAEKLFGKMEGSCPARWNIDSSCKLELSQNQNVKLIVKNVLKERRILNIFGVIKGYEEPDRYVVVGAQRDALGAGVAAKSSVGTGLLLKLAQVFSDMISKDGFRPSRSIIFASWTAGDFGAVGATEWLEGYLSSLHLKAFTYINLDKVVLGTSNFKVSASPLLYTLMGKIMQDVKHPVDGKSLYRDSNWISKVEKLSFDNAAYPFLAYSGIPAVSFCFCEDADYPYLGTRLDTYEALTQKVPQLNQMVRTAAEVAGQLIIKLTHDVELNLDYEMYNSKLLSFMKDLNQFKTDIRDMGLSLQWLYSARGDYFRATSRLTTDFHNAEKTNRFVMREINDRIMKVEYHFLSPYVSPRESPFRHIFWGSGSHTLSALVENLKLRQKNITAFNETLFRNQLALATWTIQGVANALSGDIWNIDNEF
# protocol summary: ELISA on coated TfR1 ectodomain; 125I-labelled or original sample, anti-VHH detection

{"binder": "scFv-KB_B01 (3D6 scFv at the N-terminus of KB_B01) (bispecific antibody, also called scFv-VHH) EVKLVESGGGLVKPGASLKLSCAASGFTFSNYGMSWVRQNSDKRLEWVASIRSGGGRTYYSDNVKGRFTISRENAKNTLYLQMSSLKSEDTALYYCVRYDHYSGSSDYWGQGTTVTVSGGGGSGGGGSGGGGSYVVMTQTPLTLSVTIGQPASISCKSSQSLLDSDGKTYLNWLLQRPGQSPKRLIYLVSKLDSGVPDRFTGSGSGTDFTLKISRIEAEDLGLYYCWQGTHFPRTFGGGTKLEIKGGGGSGGGGSGGGGSQVQLQESGGGLVQAGGSLRLSCAASGTPFSNNYMRWYRQAPGKQREWVAGFTSGGSTNYADSVKGRFTISRDNAEGTVYLQMDNLKPEDTAVYYCYFLDVWGQGTQVTVSSGSENLYFQSHHHHHH", "binding result": "binds"}
